B1: Caulobacter ParB omega fusion; a variant is named by its letters at X, in order, B8GW30 (parent)
chain: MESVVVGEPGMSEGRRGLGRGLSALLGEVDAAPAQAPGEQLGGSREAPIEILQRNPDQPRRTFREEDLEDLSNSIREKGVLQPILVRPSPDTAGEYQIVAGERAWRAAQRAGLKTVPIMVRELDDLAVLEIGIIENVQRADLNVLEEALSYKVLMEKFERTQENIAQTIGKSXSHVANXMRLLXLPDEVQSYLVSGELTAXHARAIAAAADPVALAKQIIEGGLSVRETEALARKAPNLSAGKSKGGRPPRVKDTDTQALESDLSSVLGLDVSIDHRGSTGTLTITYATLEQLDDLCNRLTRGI

Variants of: B1
ASSAY PROTOCOL: one-hybrid fitness for binding parS DNA (scaled: cognate 1, non-cognate 0); higher = stronger binding
RUN PARAMETERS: with parS DNA site
Whole data set: some 81,000 sequences, median “one-hybrid fitness for binding parS DNA” near -0.17, cut for the highest 2% near 0.51. This is one part of a sample in which the highest values are shown more often than they occur.
REPORTED METRIC: one-hybrid fitness for binding parS DNA

A selection of reference data follows.
{"VARIANT STRING": "ENNW", "one-hybrid fitness for binding parS DNA": "≤ 0.2"}
{"VARIANT STRING": "RRKS", "one-hybrid fitness for binding parS DNA": 0.684}
{"VARIANT STRING": "WTHY", "one-hybrid fitness for binding parS DNA": "≤ 0.2"}
{"VARIANT STRING": "RCLY", "one-hybrid fitness for binding parS DNA": 0.49}
{"VARIANT STRING": "CPKA", "one-hybrid fitness for binding parS DNA": "≤ 0.2"}

Prompt line: Input `QNKG` , output reported one-hybrid fitness for binding parS DNA.
Response line: ≤ 0.2

Prompt line: Input `RTFA` , output reported one-hybrid fitness for binding parS DNA.
Response line: 0.592

Prompt line: Input `YRPK` , output reported one-hybrid fitness for binding parS DNA.
Response line: ≤ 0.2

Prompt line: Input `RNHH` , output reported one-hybrid fitness for binding parS DNA.
Response line: ≤ 0.2

Prompt line: Input `DTAA` , output reported one-hybrid fitness for binding parS DNA.
Response line: ≤ 0.2

Prompt line: Input `RNHS` , output reported one-hybrid fitness for binding parS DNA.
Response line: 0.911

Prompt line: Input `RVDY` , output reported one-hybrid fitness for binding parS DNA.
Response line: 0.427

Prompt line: Input `HLQY` , output reported one-hybrid fitness for binding parS DNA.
Response line: ≤ 0.2

Prompt line: Input `RRKM` , output reported one-hybrid fitness for binding parS DNA.
Response line: 0.802

Prompt line: Input `RVRY` , output reported one-hybrid fitness for binding parS DNA.
Response line: 0.583

Prompt line: Input `RGEC` , output reported one-hybrid fitness for binding parS DNA.
Response line: 0.449

Prompt line: Input `LFYG` , output reported one-hybrid fitness for binding parS DNA.
Response line: ≤ 0.2

Prompt line: Input `RVLY` , output reported one-hybrid fitness for binding parS DNA.
Response line: 0.508

Prompt line: Input `RNWN` , output reported one-hybrid fitness for binding parS DNA.
Response line: ≤ 0.2

Prompt line: Input `RGNN` , output reported one-hybrid fitness for binding parS DNA.
Response line: 0.321

Prompt line: Input `RNIH` , output reported one-hybrid fitness for binding parS DNA.
Response line: ≤ 0.2

Prompt line: Input `QREG` , output reported one-hybrid fitness for binding parS DNA.
Response line: ≤ 0.2

Prompt line: Input `DGVM` , output reported one-hybrid fitness for binding parS DNA.
Response line: ≤ 0.2

Prompt line: Input `RGNC` , output reported one-hybrid fitness for binding parS DNA.
Response line: 0.716

Prompt line: Input `PFSI` , output reported one-hybrid fitness for binding parS DNA.
Response line: ≤ 0.2
